# Tested on: S. mansoni adult worms
# Experimental Protocol: In vitro assay, S. mansoni adult worms
# Format: cell-based
# Condition Details: Schistosoma mansoni; S. mansoni adult worms, in vitro; read-out: (a) Adult
pIC50: −log10 of the molar value.
Outcome Measure: pIC50

These recorded examples may help you get a feel for the data.
## Input Name the recorded pIC50 of the item Fc1ccc(-c2cn3c(-c4ccc5[nH]ncc5c4F)c(C(F)(F)F)nc3cn2)cc1Br in your answer.
## Output 7.32

## Input Please give the documented pIC50 of COc1cc(O)ccc1-c1c(C(C)C)nc2cnc(-c3cccc(C(F)(F)F)c3)cn12
## Output 6.04

## Input Look up and state reported pIC50 for CC(C)c1nc2cnc(-c3ccc(F)c(C(F)(F)F)c3)cn2c1-c1c(F)cc(O)cc1F
## Output 7.36

## Input Output measured pIC50 for this item: CC(C)c1cc(-c2cn3c(-c4ccc5[nH]ncc5c4F)c(C(F)(F)F)nc3cn2)ccc1F
## Output 8.70

## Input Quote pIC50 reported for Fc1c(-c2c(C(F)(F)F)nc3cnc(-c4cccc(OC(F)(F)F)c4)cn23)ccc2[nH]ncc12 please.
## Output 7.68

(A) CC(C)c1cccc(-c2cn3c(-c4ccc5[nH]ncc5c4F)c(C(F)(F)F)nc3cn2)c1
(B) Cc1nc2cnc(-c3cccc(C(F)(F)F)c3)cn2c1-c1ccc(O)cc1
(C) CC(C)c1nc2cnc(-c3cccc(C(F)(F)F)c3)nc2n1-c1ccc(O)cc1F
(D) Fc1c(-c2c(C(F)(F)F)nc3cnc(-c4cccc(C(F)(F)C(F)(F)F)c4)cn23)ccc2[nH]ncc12
(E) CC(C)Oc1cc(-c2cn3c(-c4ccc5[nH]ncc5c4F)c(C(F)(F)F)nc3cn2)ccc1F
## Input Reorder the items by pIC50, least to greatest. # format: label list in the order the request specifies
## Output B, C, D, E, A

(A) COc1ccc(-c2c(C(F)(F)F)nc3cnc(-c4cccc(C(F)(F)C(F)(F)F)c4)cn23)cc1O
(B) Fc1ccc(-c2cn3c(-c4ccc5[nH]ncc5c4F)c(C(F)(F)F)nc3cn2)cc1C(F)(F)C(F)(F)F
(C) Fc1ccc(-c2cn3c(-c4ccc5[nH]ncc5c4F)c(C4CCC4)nc3cn2)cc1C(F)(F)F
## Input rank_up(items): orders items by reported pIC50 in ascending numerical order. Write the labels out in the order the request specifies.
## Output C, A, B
